// activation lookup, one value per entry
study system: E-selectin (Homo sapiens)
measurement notes: inducers of endothelial E-selectin expression – imaging, HUVEC, immunofluorescence imaging, single point, primary screen (AID 686992);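 further: signal is the percent of cells scored E-selectin positive by PE staining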
condition details: at 7.58 µM, hits give high values, normalized: neutral wells 0, TNF-alpha wells 100
The whole screen tested about 260,000 compounds, of which about 960 (0.37%) were called active. What follows is part of a selection rich in actives, with near analogues and random picks from the rest.
measurement name: activation (%)

molecule	data value
COc1ccc(C2=NN(C(=O)c3cccnc3)C(c3ccccc3)C2)cc1 (stereo not drawn)	-2.28
O=S1(=O)CCN(C2CCCCCCCCCCC2)CC1	-0.851
Cn1c(Nc2ccc(F)cc2)nc2cc(-c3ccsc3)sc2c1=O	0.0175
COC(=O)C[C@H]1CC[C@H]2[C@@H](COc3ccc(NC(=O)C4CC4)cc3C(=O)N2C)O1	84.9
C[C@@H]1CN([C@H](C)CO)C(=O)c2c(c3ccccc3n2C)-c2ccccc2CO[C@@H]1CN(C)Cc1ccccc1C(F)(F)F	30.5
COC(=O)C[C@H]1CC[C@H]2[C@@H](COc3ccc(NC(=O)Nc4cccc(F)c4)cc3C(=O)N2C)O1	-0.114
CO[C@H]1CN(C)C(=O)c2ccc(NC(=O)CC(F)(F)F)cc2OC[C@H](C)N(C(=O)C2CC2)C[C@H]1C	-0.112
CN[C@H]1C[C@H]2c3cc(Oc4ccccc4C)ccc3CCN2C(=O)[C@H]1[C@H](C)O	-1.54
COc1ccc(C2=NN(C(C)=O)C(c3ccccc3)C2)cc1 (stereo not drawn)	0.176
O=C(c1ccccn1)N1CC2(C1)[C@@H](c1ccccc1)[C@@H](CO)N2C(=O)C1CCCCC1	1.98
CCCc1ccc(S(=O)(=O)N2CCN(C(=O)c3cc(C)on3)CC2)cc1	-0.187
COC(=O)C[C@@H]1CC[C@@H]2[C@H](COc3ccc(NC(=O)Nc4cccc(F)c4)cc3C(=O)N2C)O1	59.2
COc1ccc(-c2ccccc2[C@H]2[C@@H](C#N)N(C(=O)C3CCC3)[C@@H]2CO)cc1	-0.0965
COC(=O)C[C@@H]1CC[C@H]2[C@H](COc3ccc(NC(=O)c4ccccc4F)cc3C(=O)N2C)O1	0.0145
CN1C(=O)c2cc(NC(=O)C3CCOCC3)ccc2OC[C@@H]2O[C@H](CC(=O)NCc3ccccc3F)CC[C@H]21	99.5
CC(C)C[C@H]1CN([C@@H](Cc2ccccc2)CN2CCC[C@@H]2CN2C(=O)C(=O)NC[C@@H]2Cc2ccc(O)cc2)C(=O)C(=O)N1CCc1ccccc1	9.99
C[C@@H]1CN([C@H](C)CO)C(=O)c2c(c3ccccc3n2C)-c2ccccc2CO[C@@H]1CN(C)Cc1ccc(F)cc1	-0.183
O=C(N[C@H]1C=C[C@@H](CC(=O)N2CCc3ccccc3C2)O[C@@H]1CO)C1CCOCC1	-0.136

====

study system: E-selectin (Homo sapiens)
measurement notes: inducers of endothelial E-selectin expression – imaging, HUVEC, immunofluorescence imaging, single point, primary screen (AID 686992);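 further: signal is the percent of cells scored E-selectin positive by PE staining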
condition details: at 7.58 µM, normalized: neutral wells 0, TNF-alpha wells 100
Out of some 260,000 compounds screened, about 960 (0.37%) were called active.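 How the source made its calls: active means mean E-selectin-positive cell signal at least 10% of the positive control, reached in at least 60% of replicates, without over 20% cell loss; inconclusive means no rule given, readout overlaps actives, possibly toxicity-flagged; inactive means the rest, including those meeting only one limit.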 Only a selection was taken, and actives are over-represented in it overall.
Possible outcomes: active, inactive

compound	assigned category
COc1cccc(-c2nc3nc(C)cc(C)n3c2NC2CCCCC2)c1	inactive
C[C@@H]1CN([C@H](C)CO)C(=O)Cc2cc(NC(=O)Nc3ccccc3)ccc2O[C@H]1CN(C)Cc1ccc(Cl)c(Cl)c1	inactive
COc1cccc(-c2cc3nc(NCCOc4ccccc4Cl)n(C)c(=O)c3s2)c1	inactive
C[C@@H](CN1C2=NC[C@@H](Cc3ccccc3)N2C[C@H]1Cc1ccc(O)cc1)NC(=O)CCC1CCCCC1	inactive
CCCC(=O)Nc1ccc2c(c1)C(=O)N(C)[C@@H]1CC[C@H](CC(=O)Nc3cn(C)nc3C)O[C@H]1CO2	inactive
COCC(=O)N1[C@H](C(=O)N2CCN(C)CC2)[C@@H](CO)[C@@H]2Cn3c(ccc(C4=CCCC4)c3=O)[C@@H]21	inactive
COc1ccc(NC(=O)Nc2ccc3c(c2)C(=O)N([C@@H](C)CO)C[C@H](C)[C@@H](CN(C)S(=O)(=O)c2ccc(Cl)cc2)O3)cc1	inactive
O=C(c1ccccc1)N1C[C@@H]2[C@H](c3ccccc31)[C@@H](CO)N2Cc1cc(F)ccc1F	inactive
C[C@H](CO)N1C[C@H](C)[C@@H](CN(C)Cc2ccc(C(=O)O)cc2)Oc2ccc(NC(=O)Cn3cnnn3)cc2CC1=O	inactive
CCCN1C[C@@H](C)[C@@H](OC)CN(C)C(=O)c2cc(NC(=O)CC(F)(F)F)ccc2OC[C@H]1C	inactive
Cc1noc(C)c1NC(=O)Nc1ccc2c(c1)C(=O)N([C@@H](C)CO)C[C@H](C)[C@H](CN(C)S(=O)(=O)c1ccc(Cl)cc1)O2	inactive
CO[C@@H]1CN(C)C(=O)c2cc(NS(=O)(=O)c3ccc(C)cc3)ccc2OC[C@H](C)N(Cc2nccs2)C[C@@H]1C	inactive
Cc1nc(N2CCN(c3ccccn3)CC2)c2c(C)c(C(=O)Nc3ccc(F)cc3)sc2n1	active
CCN1C(=O)N[C@@H]2C[C@H](C(=O)N3CCCC3)[C@H](C)[C@H](c3ccccc3)C[C@@H]21	inactive
Cc1noc(C)c1NC(=O)Nc1ccc2c(c1)CC(=O)N([C@H](C)CO)C[C@@H](C)[C@@H](CN(C)Cc1ccc(C(F)(F)F)cc1)O2	inactive
COc1ccc(C(C)(O)c2nc(-c3cc(F)cc(F)c3)cs2)cc1 (stereo unspecified)	inactive
